Source listed as a melting point compilation (Tetko et al.; mined from patent text by program, amines drawn as free bases though some values may be those of a salt).

I'd be grateful if you could share measured melting point for these entries.

// query melting point value for entry CCN(CC)CCNS(=O)(=O)c1ccc(Nc2ncnc3ccc(Cl)cc23)cc1
110 to 113 °C

// query melting point value for entry Clc1cccnc1-c1ccc2[nH]nc(Nc3cnccn3)c2c1
228 to 230 °C

// query melting point value for entry CC(=O)c1ccc(-c2cc(N3CCCCC3)c(C#N)c3c2-c2ccccc2C3)cc1
182 to 184 °C

* * *

valueKind: melting point

// query melting point value for entry CN(c1nc(=O)n(C)cc1F)S(=O)(=O)Cc1ccccc1
159 to 160 °C

// query melting point value for entry CC(CC(=O)c1ccccc1)C(=O)N1CSCC1C(=O)O (stereo unspecified)
182 to 183 °C

// query melting point value for entry Nc1ncnc2c1ncn2Cc1oc2ccccc2c(=O)c1-c1ccccc1F
202 to 205 °C

// query melting point value for entry CCCC1=C(C(=O)OCC)C(c2cccc3nonc23)c2c[nH]nc2N1 (stereo unspecified)
207 °C

// query melting point value for entry FC(F)(F)c1ccc2nc3c(nc2c1)OCC1CCCCN31 (stereo unspecified)
154 to 156 °C

// query melting point value for entry CCCn1c2ccccc2c2cc(C(=O)CC(C)=O)ccc21
97 °C

// query melting point value for entry Cc1ccn2c(C(=O)O)c(C)nc2c1
180 to 183 °C

// query melting point value for entry CC1(c2ccc(S(=O)(=O)Cl)cc2)Cc2cc(OCC(=O)O)c(Cl)c(Cl)c2C1=O (stereo unspecified)
209 to 210 °C

// query melting point value for entry CNc1ncc(-c2ccccc2)c(-c2ccccc2)n1
136 to 138 °C

// query melting point value for entry CCCc1cc(N2CCN(c3ccncc3)CC2)ccc1OCCCC(=O)OCC
65 to 67 °C

// query melting point value for entry CCN(c1ccc(OCc2ccc(OC(F)(F)F)cc2)cc1)C1CCN(c2ccc(OC[C@H]3CCn4cc([N+](=O)[O-])nc4O3)cc2)CC1
95.2 to 97 °C

* * *

I'd be grateful if you could share measured melting point for these entries.

// query melting point value for entry O=C(C[C@@H](CCCC1CCCCC1)c1nc(CN2CCOCC2)co1)NO
117 to 119 °C

// query melting point value for entry O=C(CCC1CCN(Cc2ccccc2)CC1)c1ccc(F)cc1
65 to 67 °C

// query melting point value for entry CCN(CC)C(=O)c1cc(C(C)(C)C)ccc1-c1ccc(OC)cc1
89 to 92 °C

// query melting point value for entry O=C(O)C(Cc1ccccc1)Nc1nccc(-c2ccc(OCc3ccccc3)cc2)n1 (stereo not drawn)
174 °C

// query melting point value for entry CC(C)(C)c1cc2c(c(C(C)(C)C)c1)OC(C(F)(F)F)C(C(=O)O)=C2 (stereo not drawn)
172 to 175 °C

// query melting point value for entry CCC1(CC)CN(C(C)(C)C)C(=O)C(C)(CC)N1OC(C)c1ccccc1 (stereo not drawn)
76 to 79 °C

// query melting point value for entry CCCCCCCCCCCN=C=O
109 to 110 °C

// query melting point value for entry CN(C)c1ccc(CCBr)cc1
45 to 46 °C

* * *

valueKind: melting point

// query melting point value for entry COc1ccc(C2=CCN(c3ccc(Cl)c(Cl)c3)C2=O)cc1OCCN1CCCCC1
98 to 99 °C

// query melting point value for entry Cc1c(C)c2c(c(C)c1NC(=O)OC(C)(C)C)C(=O)C(C)(C)O2
105 to 106 °C

// query melting point value for entry COc1cc(-c2nc(-c3ccc(N(C)C)cc3)c(C)o2)ccc1O
170 to 173 °C

// query melting point value for entry Cn1c(C(F)(F)F)cc(=O)n(-c2cc(OC(=O)C3CCCCC3)c(Cl)cc2F)c1=O
97 to 101 °C

// query melting point value for entry COc1ccc2c(c1)CCC1(C)CC(=O)NN=C21 (stereo unspecified)
215 °C

// query melting point value for entry C(=NNc1cc(N2CCOCC2)nc(OCCc2ccccn2)n1)c1c[nH]c2ccccc12
160 to 165 °C

// query melting point value for entry CC(C)(C)c1cc(C(=O)CBr)cc2c1OCC2(C)C
54 to 56 °C

// query melting point value for entry C=CCN(c1nc(N2CCN(C(=O)n3ccnc3)CC2)nc(N(CC=C)C2CCCCC2)n1)C1CCCCC1
132 to 135 °C

// query melting point value for entry COc1c(N2CCC(n3nncc3C)C2)c(F)cc2c(=O)c(C(=O)O)cn(C3CC3)c12 (stereo unspecified)
226 to 228 °C

// query melting point value for entry CC(CN1CCCC1)N1c2ccccc2Sc2ccc(C(=O)NCc3c(Cl)cccc3Cl)cc21 (racemic)
138 °C

// query melting point value for entry CC(=O)OC1CSC(Oc2ccc(-c3ccc(F)nc3)nc2Cl)C(OC(C)=O)C1OC(C)=O (stereo unspecified)
226 °C
